Organism: Homo sapiens
MEASUREMENT_PROTOCOL: Selectivity ratio of relative binding affinity for human ERalpha to relative binding affinity to human ERbeta
Binning scheme for Selectivity ratio: one (below 6), two (6 to below 20), three (20 or more)

// below: answered molecules
{"columns": ["MOLECULE", "GROUP_LABEL"],
 "data": [
  ["N#C[Se]CCCCCCOc1ccc(OS(=O)(=O)C2CC3OC2C(c2ccc(O)cc2)=C3c2ccc(O)cc2)cc1 (centres undefined)", "one"],
  ["COc1ccccc1OS(=O)(=O)C1CC2OC1C(c1ccc(NC(=O)CCCCC[Se]C#N)cc1)=C2c1ccc(O)cc1 (centres undefined)", "two"],
  ["N#C[Se]CCCCCC(=O)Nc1ccc(C2=C(c3ccc(O)cc3)C3CC(S(=O)(=O)Oc4cccc5ccccc45)C2O3)cc1 (centres undefined)", "one"],
  ["COc1cccc(OS(=O)(=O)C2CC3OC2C(c2ccc(NC(=O)CCCCC[Se]C#N)cc2)=C3c2ccc(O)cc2)c1 (centres undefined)", "three"],
  ["COc1ccc(N(CC(F)(F)F)S(=O)(=O)C2CC3OC2C(c2ccc(NC(=O)CCCCCCC[Se]C#N)cc2)=C3c2ccc(O)cc2)cc1 (centres undefined)", "two"]
]}

Lookup: Which class does N#C[Se]CCCCCC(=O)Nc1ccc(C2=C(c3ccc(O)cc3)C3CC(S(=O)(=O)Oc4ccccc4Br)C2O3)cc1 (centres undefined) fall in?
Found: two

Lookup: Hey, which category is CCN(c1ccc(F)cc1)S(=O)(=O)C1CC2OC1C(c1ccc(NC(=O)CCCCC[Se]C#N)cc1)=C2c1ccc(O)cc1 (centres undefined) in, do you know?
Found: three

Lookup: Which of the defined bands does the recorded Selectivity ratio of N#C[Se]CCCCCC(=O)Nc1ccc(C2=C(c3ccc(O)cc3)C3CC(S(=O)(=O)Oc4ccc(Cl)cc4)C2O3)cc1 (centres undefined) sit within?
Found: one

Numbers sourced from ChEMBL document CHEMBL5360672.
